From: paper PMC10247784

Measured RLU, fluorescence trace accompanies every entry in the list below.
- study-system: human TAS2R4 (Homo sapiens, UniProt Q9NYW5)
- Construct: expressed in transfected cells; host or cells: HEK293T-Gα16gust44
- Sequence (Q9NYW5 whole entry): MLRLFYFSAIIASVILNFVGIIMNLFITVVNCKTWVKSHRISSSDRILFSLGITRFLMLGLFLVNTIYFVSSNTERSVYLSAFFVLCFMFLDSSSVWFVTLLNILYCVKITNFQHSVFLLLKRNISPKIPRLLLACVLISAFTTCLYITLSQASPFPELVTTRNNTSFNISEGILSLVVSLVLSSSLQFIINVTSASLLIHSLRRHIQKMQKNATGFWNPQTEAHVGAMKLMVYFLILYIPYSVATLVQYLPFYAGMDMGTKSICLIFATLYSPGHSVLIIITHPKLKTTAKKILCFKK
- assay-name: Calcium imaging assay (FLIPR), HEK293T-Gα16gust44 cells transfected with human TAS2R4; also: test concentration or dose not given here
- Type: cell-based
- settings: Time (s) 32.781 (TCA, TLCA: 32.782)
Please state the figure in RLU; there is no need to write the unit.

[[record]]
molecule = "C[C@H](CCC(=O)NCC(=O)O)[C@H]1CC[C@H]2[C@@H]3[C@H](O)C[C@@H]4C[C@H](O)CC[C@]4(C)[C@H]3C[C@H](O)[C@]12C [Glycocholic Acid, glycocholic acid]"
recorded_number = 524.444

[[record]]
molecule = "C[C@H](CCC(=O)O)[C@H]1CC[C@H]2[C@@H]3CC[C@@H]4C[C@H](O)CC[C@]4(C)[C@H]3C[C@H](O)[C@]12C [Deoxycholic Acid, deoxycholic acid]"
recorded_number = 109


Switching to the query record.
Request: GET /values?readout=RLU, fluorescence trace&system=human TAS2R4 (Homo sapiens, UniProt Q9NYW5)&item= C[C@H](CCC(=O)O)[C@H]1CC[C@H]2[C@@H]3[C@H](O)C[C@@H]4C[C@H](O)CC[C@]4(C)[C@H]3C[C@H](O)[C@]12C [Cholic Acid, cholic acid]
Response: 286.976

====

- study-system: human TAS2R14 (Homo sapiens, UniProt Q9NYV8)
- Construct: expressed in transfected cells; host or cells: HEK293T-Gα16gust44
- Sequence (Q9NYV8 1-317): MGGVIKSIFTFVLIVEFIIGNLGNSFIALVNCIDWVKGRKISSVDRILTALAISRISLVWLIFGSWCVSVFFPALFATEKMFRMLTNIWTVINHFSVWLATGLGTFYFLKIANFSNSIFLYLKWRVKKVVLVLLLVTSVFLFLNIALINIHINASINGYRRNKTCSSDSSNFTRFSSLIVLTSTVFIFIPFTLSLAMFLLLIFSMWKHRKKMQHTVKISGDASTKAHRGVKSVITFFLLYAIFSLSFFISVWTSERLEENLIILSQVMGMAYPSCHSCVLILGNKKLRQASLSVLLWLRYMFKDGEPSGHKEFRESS
- assay-name: Calcium imaging assay (FLIPR), HEK293T-Gα16gust44 cells transfected with human TAS2R14
- Format: cell-based
- settings: TAS2R14 trace; Time (s) 74.797 (Chenodeoxycholic Acid 74.781)
endpoint: RLU
Record the result as number plus unit.

Examples from the recorded data:
[[record]]
given_smiles = "C[C@H](CCC(=O)NCC(=O)O)[C@H]1CC[C@H]2[C@@H]3[C@H](O)C[C@@H]4C[C@H](O)CC[C@]4(C)[C@H]3C[C@H](O)[C@]12C"
result = "701.49 RLU"

[[record]]
given_smiles = "C[C@H](CCC(=O)O)[C@H]1CC[C@H]2[C@@H]3[C@H](O)C[C@@H]4C[C@H](O)CC[C@]4(C)[C@H]3CC[C@]12C"
result = "600.862 RLU"

[[record]]
given_smiles = "C[C@H](CCC(=O)NCCS(=O)(=O)O)[C@H]1CC[C@H]2[C@@H]3CC[C@@H]4C[C@H](O)CC[C@]4(C)[C@H]3CC[C@]12C"
result = "268.946 RLU"

[[record]]
given_smiles = "C[C@H](CCC(=O)O)[C@H]1CC[C@H]2[C@@H]3[C@H](O)C[C@@H]4C[C@H](O)CC[C@]4(C)[C@H]3C[C@H](O)[C@]12C"
result = "945.307 RLU"


Please examine the following record next.
Request: // RLU lookup, key: C[C@H](CCC(=O)NCCS(=O)(=O)O)[C@H]1CC[C@H]2[C@@H]3[C@H](O)C[C@@H]4C[C@H](O)CC[C@]4(C)[C@H]3C[C@H](O)[C@]12C
Response: 688.158 RLU

====

- study-system: mouse Tas2r108 (Mus musculus, UniProt Q9JKT3)
- Construct: expressed in transfected cells; host or cells: HEK293T-Gα16gust44
- Sequence (Q9JKT3 1-297): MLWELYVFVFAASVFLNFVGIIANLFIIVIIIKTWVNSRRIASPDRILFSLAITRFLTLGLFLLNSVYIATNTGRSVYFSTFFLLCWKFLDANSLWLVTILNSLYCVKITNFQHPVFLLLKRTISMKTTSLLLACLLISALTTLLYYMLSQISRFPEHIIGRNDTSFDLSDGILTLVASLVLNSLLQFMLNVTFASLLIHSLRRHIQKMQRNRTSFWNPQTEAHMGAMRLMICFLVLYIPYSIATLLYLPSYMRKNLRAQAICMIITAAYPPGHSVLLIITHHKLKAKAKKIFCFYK
- assay-name: Calcium imaging assay (FLIPR), HEK293T-Gα16gust44 cells transfected with mouse Tas2r108
- Type: cell-based
- settings: Time 8 s
Everything with RLU lower than 3 RLU is No; everything else, including exactly 3 RLU, is Yes.

[[record]]
compound = "C[C@H](CCC(=O)O)[C@H]1CC[C@H]2[C@@H]3[C@H](O)C[C@@H]4C[C@H](O)CC[C@]4(C)[C@H]3C[C@H](O)[C@]12C [Cholic Acid, cholic acid]"
group_label = "No"


Request: Exam item: decide whether the reported RLU for C[C@H](CCC(=O)NCCS(=O)(=O)O)[C@H]1CC[C@H]2[C@@H]3[C@H](O)C[C@@H]4C[C@H](O)CC[C@]4(C)[C@H]3C[C@H](O)[C@]12C [Taurocholic Acid, taurocholic acid] is at least 3 RLU.
Response: No

Request: Can C[C@H](CCC(=O)NCC(=O)O)[C@H]1CC[C@H]2[C@@H]3[C@H](O)C[C@@H]4C[C@H](O)CC[C@]4(C)[C@H]3C[C@H](O)[C@]12C [Glycocholic Acid, glycocholic acid] be said to have RLU at or above 3 RLU?
Response: No

Request: Decide: is the reported value of RLU for C[C@H](CCC(=O)O)[C@H]1CC[C@H]2[C@@H]3CC[C@@H]4C[C@H](O)CC[C@]4(C)[C@H]3C[C@H](O)[C@]12C [Deoxycholic Acid, deoxycholic acid] equal to or greater than 3 RLU?
Response: Yes

Request: Assess whether reported RLU for C[C@H](CCC(=O)NCCS(=O)(=O)O)[C@H]1CC[C@H]2[C@@H]3CC[C@@H]4C[C@H](O)CC[C@]4(C)[C@H]3CC[C@]12C [Taurolithocholic Acid, taurolithocholic acid] sits at 3 RLU or higher.
Response: Yes

====

Listing of recorded RLU by entry.
- study-system: human TAS2R1 (Homo sapiens)
- Construct: expressed in transfected cells; host or cells: HEK293T-Gα16gust44
- Sequence (Q9NYW7 whole entry): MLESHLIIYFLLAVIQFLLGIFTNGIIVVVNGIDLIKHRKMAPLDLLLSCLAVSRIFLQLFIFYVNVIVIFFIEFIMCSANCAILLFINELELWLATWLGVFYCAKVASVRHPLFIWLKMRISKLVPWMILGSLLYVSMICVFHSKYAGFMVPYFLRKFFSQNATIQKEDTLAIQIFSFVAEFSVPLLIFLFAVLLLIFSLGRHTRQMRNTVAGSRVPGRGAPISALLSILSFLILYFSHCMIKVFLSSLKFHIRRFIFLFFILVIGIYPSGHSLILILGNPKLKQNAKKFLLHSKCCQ
- assay-name: Calcium imaging assay (FLIPR), HEK293T-Gα16gust44 cells transfected with human TAS2R1
- Format: cell-based
- settings: calcium trace, sheet TAS2R1; Time 359.562 s
Quick reminder: number only, in RLU, skip the unit.

[[record]]
given_smiles = "C[C@H](CCC(=O)O)[C@H]1CC[C@H]2[C@@H]3[C@H](O)C[C@@H]4C[C@H](O)CC[C@]4(C)[C@H]3CC[C@]12C"
endpoint = "RLU"
quantity_unit = "RLU"
recorded_number = 146.172

[[record]]
given_smiles = "C[C@H](CCC(=O)O)[C@H]1CC[C@H]2[C@@H]3CC[C@@H]4C[C@H](O)CC[C@]4(C)[C@H]3CC[C@]12C"
endpoint = "RLU"
quantity_unit = "RLU"
recorded_number = 182.753

[[record]]
given_smiles = "C[C@H](CCC(=O)O)[C@H]1CC[C@H]2[C@@H]3[C@@H](O)C[C@@H]4C[C@H](O)CC[C@]4(C)[C@H]3CC[C@]12C"
endpoint = "RLU"
quantity_unit = "RLU"
recorded_number = -31.063


Now take the following compound into account.
Request: Please give the measured RLU for this compound: C[C@H](CCC(=O)O)[C@H]1CC[C@H]2[C@@H]3[C@H](O)C[C@@H]4C[C@H](O)CC[C@]4(C)[C@H]3C[C@H](O)[C@]12C
Response: -15.7961

====

- study-system: mouse Tas2r105 (Mus musculus, UniProt Q9JKT4)
- Construct: expressed in transfected cells; host or cells: HEK293T-Gα16gust44
- Sequence (Q9JKT4 1-300): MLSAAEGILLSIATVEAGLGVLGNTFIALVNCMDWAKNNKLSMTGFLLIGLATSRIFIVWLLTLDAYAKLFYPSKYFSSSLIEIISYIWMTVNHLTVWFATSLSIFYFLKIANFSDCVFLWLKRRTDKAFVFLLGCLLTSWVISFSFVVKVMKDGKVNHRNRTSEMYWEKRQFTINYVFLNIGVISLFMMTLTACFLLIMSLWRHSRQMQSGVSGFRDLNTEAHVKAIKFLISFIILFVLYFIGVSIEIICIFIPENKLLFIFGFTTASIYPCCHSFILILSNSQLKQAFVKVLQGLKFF
- assay-name: Calcium imaging assay (FLIPR), HEK293T-Gα16gust44 cells transfected with mouse Tas2r105
- Format: cell-based
- settings: Time 8 s
Parameter: RLU. Scope: all listed entries.
Give the value, in units of RLU, as a plain number.

Recorded RLU, per entry:
[[record]]
given_smiles = "C[C@H](CCC(=O)O)[C@H]1CC[C@H]2[C@@H]3CC[C@@H]4C[C@H](O)CC[C@]4(C)[C@H]3CC[C@]12C"
study_system = "mouse Tas2r105 (Mus musculus, UniProt Q9JKT4)"
quantity_unit = "RLU"
recorded_number = 9.805

[[record]]
given_smiles = "C[C@H](CCC(=O)O)[C@H]1CC[C@H]2[C@@H]3CC[C@@H]4C[C@H](O)CC[C@]4(C)[C@H]3C[C@H](O)[C@]12C"
study_system = "mouse Tas2r105 (Mus musculus, UniProt Q9JKT4)"
quantity_unit = "RLU"
recorded_number = 14.8013

[[record]]
given_smiles = "C[C@H](CCC(=O)O)[C@H]1CC[C@H]2[C@@H]3[C@H](O)C[C@@H]4C[C@H](O)CC[C@]4(C)[C@H]3C[C@H](O)[C@]12C"
study_system = "mouse Tas2r105 (Mus musculus, UniProt Q9JKT4)"
quantity_unit = "RLU"
recorded_number = 9.829


Turning to the following compound.
Request: Request the reported RLU associated with C[C@H](CCC(=O)NCC(=O)O)[C@H]1CC[C@H]2[C@@H]3[C@H](O)C[C@@H]4C[C@H](O)CC[C@]4(C)[C@H]3C[C@H](O)[C@]12C
Response: -47.8563
